System: Bacillus subtilis
Test: cleaved RNA product abundance (RNA/gDNA barcode ratio) relative to median wild-type variant (ratio to wild type); higher = more accumulation of the downstream cleavage product
Conditions: experiment (reporter, strain, medium): exp 8a: truncated aprE reporter, strain BJT201 with 2% xylose (RNase J1 expressed); cleavage site: glnRA (positions -5 to +31 mutated)
Would you kindly list cleaved RNA product abundance for each of these sequences?
Answer field: number only, no words.

Q. Assign cleaved RNA product abundance to the following record: CGACATGTCCCGCTTCTTTCATTAATCCGTTAACAACTGTCTTGCTATATACATTTACCTTTTAAGAGGAGGAAT
A. 0.0713

Q. Assign cleaved RNA product abundance to the following record: CGACATGTCCCGCTTCTTTCATTAATCCGTTAGCAATTTTTTTGCTATATACATTTACCTTTTAAGAGGAGGAAT
A. 1.16

Q. Assign cleaved RNA product abundance to the following record: CGACATGTCCCGCTTCTTTCATTAATCCGTTAGCAACTATTTTGCTATATACATTTACCCTTTAAGAGGAGGAAT
A. 0.937

Q. Assign cleaved RNA product abundance to the following record: CGACATGTCCCGCTTCTTTCATTACTCCGTTAGCAATTGTTTTGCTATATACATTTACCTTTTAAGAGGAGGAAT
A. 1.23

Q. Assign cleaved RNA product abundance to the following record: CGACATGTCCCGCTTCTTTCATTAATCAGTTAGCAACTGTTTTGTTATATACATTTACCTTTTAAGAGGAGGAAT
A. 0.523

Q. Assign cleaved RNA product abundance to the following record: CGACATGTCCCGCTTCTTTCATTAATCCGTTAGCAAATGTTTTGCTATATACATTTACCTTTTAAGAGGAGGAAT
A. 1.17

Q. Assign cleaved RNA product abundance to the following record: CGACATGTCCCGCTTCTTTCATTAATACGTTACCAACTGTTTTGCTATATACATTTACCTTTTAAGAGGAGGAAT
A. 0.215

Q. Assign cleaved RNA product abundance to the following record: CGACATGTCCCGCTTCTTTCATTAATCCGTCAGCAACTGTTTTGTTATATACATTTACCTTTTAAGAGGAGGAAT
A. 0.485

Q. Assign cleaved RNA product abundance to the following record: CGACATGTCCCGCTTCTTTCATTATTCCGTTAACAACTATTTTGCTATATACATTTACCTTTTAAGAGGAGGAAT
A. 0.283

Q. Assign cleaved RNA product abundance to the following record: CGACATGTCCCGCTTCTTTCATTAGTCCGTTAGCAACTGTTTTGCTATATATATTTACCTTTTAAGAGGAGGAAT
A. 0.842

Q. Assign cleaved RNA product abundance to the following record: CGACATGTCCCGCTTCTTTCATTAATCATTTAGCAACTGTTTTGCTATATACATTTACCTTTTAAGAGGAGGAAT
A. 0.249

Q. Assign cleaved RNA product abundance to the following record: CGACATGTCCCGCTTCTTTCATTACTCCGTTAGCAACTGTTTTGGTATATACATTTACCTTTTAAGAGGAGGAAT
A. 0.278

Q. Assign cleaved RNA product abundance to the following record: CGACATGTCCCGCTTCTTTCATTATTCCGTTAGCAAATGTTTTGCTATATACATTTACCTTTTAAGAGGAGGAAT
A. 1.75

Q. Assign cleaved RNA product abundance to the following record: CGACATGTCCCGCTTCTTTCATTAATCCGTTACCAACTGTTTTGCTATTTACATTTACCTTTTAAGAGGAGGAAT
A. 0.118

Q. Assign cleaved RNA product abundance to the following record: CGACATGTCCCGCTTCTTTCATTAATCCGTTAGCAACTGTTGTGCTATATACATTTACCTTTTAAGAGGAGGAAT
A. 0.516

Q. Assign cleaved RNA product abundance to the following record: CGACATGTCCCGCTTCTTTCATTAAACCCTTAGCAACTGTTTTGCTATATACATTTACCTTTTAAGAGGAGGAAT
A. 0.18

Q. Assign cleaved RNA product abundance to the following record: CGACATGTCCCGCTTCTTTCATTAATCTGTTAGCAACTGTTTTGCTATATACATTCACCTTTTAAGAGGAGGAAT
A. 0.488

Q. Assign cleaved RNA product abundance to the following record: CGACATGTCCCGCTTCTTTCATTAATCCGTTAGCAACTGTTTTGCTATATACATTTTTCTTTTAAGAGGAGGAAT
A. 0.479

Q. Assign cleaved RNA product abundance to the following record: CGACATGTCCCGCTTCTTTCATTACTCCGTTAGTAACTGTTTTGCTATATACATTTACCTTTTAAGAGGAGGAAT
A. 0.482

Q. Assign cleaved RNA product abundance to the following record: CGACATGTCCCGCTTCTTTCATTAAACCGTTAGCAACTGTTTTGCTATATACTTTTACCTTTTAAGAGGAGGAAT
A. 0.534

Q. Assign cleaved RNA product abundance to the following record: CGACATGTCCCGCTTCTTTCATTAATCCGTAAGCAACTGTTTTGATATATACATTTACCTTTTAAGAGGAGGAAT
A. 0.329

Q. Assign cleaved RNA product abundance to the following record: CGACATGTCCCGCTTCTTTCATTAATCCGTTCGCAACTGTTTTGCTATATACATTTACGTTTTAAGAGGAGGAAT
A. 0.342

Q. Assign cleaved RNA product abundance to the following record: CGACATGTCCCGCTTCTTTCATTAATCCGTTATCAAATGTTATGTTATATACATTTACCTTTTAAGAGGAGGAAT
A. 0.413

Q. Assign cleaved RNA product abundance to the following record: CGACATGTCCCGCTTCTTTCATTATTCCGTTCGCAACTGTTTTGCTATATACATTTACCTTTTAAGAGGAGGAAT
A. 0.283

Q. Assign cleaved RNA product abundance to the following record: CGACATGTCCCGCTTCTTTCATTAATCCGTTAGCAACTGTTTTACTATATACAATTACTTTTTAAGAGGAGGAAT
A. 0.712

Q. Assign cleaved RNA product abundance to the following record: CGACATGTCCCGCTTCTTTCATTAAACCGTTACCAACTGTTTTGCTATATACATTTACCTTTTAAGAGGAGGAAT
A. 0.189

Q. Assign cleaved RNA product abundance to the following record: CGACATGTCCCGCTTCTTTCATTAATCCGTTAGCAACTGTTTTGCTATATTGATTTACCTTTTAAGAGGAGGAAT
A. 0.263

Q. Assign cleaved RNA product abundance to the following record: CGACATGTCCCGCTTCTTTCATTAATCCGTTAGCAACTTTTGTGCTATATACATTTACCTTTTAAGAGGAGGAAT
A. 1.05

Q. Assign cleaved RNA product abundance to the following record: CGACATGTCCCGCTTCTTTCATTAATCCGTTAGCAACTCATTTGCTATATACATTTACCTTTTAAGAGGAGGAAT
A. 1.46

Q. Assign cleaved RNA product abundance to the following record: CGACATGTCCCGCTTCTTTCATTAATCCGTTCGCAACTGTTTTGCTATAAACATTTACCTTTTAAGAGGAGGAAT
A. 0.122

###

Tested on: Bacillus subtilis
Experiment: cleaved RNA product abundance (RNA/gDNA barcode ratio) relative to median wild-type variant (ratio to wild type); higher = more accumulation of the downstream cleavage product
Details: experiment (reporter, strain, medium): exp 8a: truncated aprE reporter, strain BJT201 with 2% xylose (RNase J1 expressed); cleavage site: glnRA (positions -5 to +31 mutated)
Would you kindly list cleaved RNA product abundance for each of these sequences?
Answer field: number only, no words.

Q. Report cleaved RNA product abundance from Bacillus subtilis testing of CGACATGTCCCGCTTCTTTCATTAATCTGTTAGCAACTGTTTGGCTATATACATTTACCTTTTAAGAGGAGGAAT
A. 0.476

Q. Report cleaved RNA product abundance from Bacillus subtilis testing of CGACATGTCCCGCTTCTTTCATTAATCCGTTTGCAACTGTTTTGCTATATACATTGACCTTTTAAGAGGAGGAAT
A. 0.837

Q. Report cleaved RNA product abundance from Bacillus subtilis testing of CGACATGTCCCGCTTCTTTCATTAATCCGTTAGCAACTGTTTTGCTATAAACATTTAACTTTTAAGAGGAGGAAT
A. 0.912

Q. Report cleaved RNA product abundance from Bacillus subtilis testing of CGACATGTCCCGCTTCTTTCATTACTCCGTTAGCAACAGTTTTGCTATATACATTTACCTTTTAAGAGGAGGAAT
A. 0.834

###

Would you kindly list cleaved RNA product abundance for each of these sequences?
Test system: Bacillus subtilis
Test: cleaved RNA product abundance (RNA/gDNA barcode ratio) relative to median wild-type variant (ratio to wild type); higher = more accumulation of the downstream cleavage product
Conditions: experiment (reporter, strain, medium): exp 2b: truncated aprE reporter, strain BJT200; cleavage site: cggR-gapA (positions -7 to +36 mutated)
Answer field: number only, no words.

Q. Assign cleaved RNA product abundance to the following record: ACAGACGAAGGAGCCGCAAAGAAGTTATGAAGGGATGAATAATTCCTCAATATAAATATCTCTCACTTATTTAAA
A. 0.274

Q. Assign cleaved RNA product abundance to the following record: ACAGACGAAGGAGCCGCAAAGAAGTTATTAACGGATAAATAATCCCTCAATATAAATATCTCTCACTTATTTAAA
A. 0.103

Q. Assign cleaved RNA product abundance to the following record: ACAGACGAAGGAGCCGCAAAGAAGTTATTAAGGAACGAATAATCCCTCAATATAAATATCTCTCACTTATTTAAA
A. 0.0842

Q. Assign cleaved RNA product abundance to the following record: ACAGACGAAGGAGCCGCAAAGAAGTTATTACGGGATGAATAATCACTCAATATAAATATCTCTCACTTATTTAAA
A. 0.108

Q. Assign cleaved RNA product abundance to the following record: ACAGACGAAGGAGCCGCAAAGAAGTTATTAAGGGTTGAACAATCCCTCAATATAAATATCTCTCACTTATTTAAA
A. 0.387

Q. Assign cleaved RNA product abundance to the following record: ACAGACGAAGGAGCCGCAAAGAAGTTATTAAGTGATGAATAATCCCTTAATATAAATATCTCTCACTTATTTAAA
A. 0.6

Q. Assign cleaved RNA product abundance to the following record: ACAGACGAAGGAGCCGCAAAGAAGTTATTAAATGATGAATAATCCCTCAATATAAATATCTCTCACTTATTTAAA
A. 0.0939
